Please provide measured Percent Effect for the entries that follow.
Target: Sialic acid-binding Ig-like lectin 9 (Homo sapiens)
Assay: Hs-Siglec9 ALPHAscreen SOP 20170721
Set-up: scale not given: direction of the effect not stated beside the values
Settings: 10 µM
Numbers only, in %.

For every item in the list below, what is its measured Percent Effect?
1. Cc1ccc(NC2CCN(C(=O)c3cnc(C)s3)CC2)nn1
2. CC(C)c1nc(CC(=O)N2CCCC(n3cncn3)C2)cs1 (centres undefined)
3. CCN1CCN(c2ccc(CNC(=O)c3c(C)noc3C)cn2)CC1
4. O=C(c1cccs1)N1CC[C@H](O)[C@@H]1Cc1ccccc1
5. CCn1cc(NC(=O)NCC(c2cccc(F)c2)N(C)C)cn1 (centres undefined)

RESULT:
-0.486
-14.2
-5.5
8.03
6.49

Dear colleague, could you send me Percent Effect for each of the items below? Thanks.
1. OC1CCCN(Cc2c(-c3ccco3)[nH]c3ncccc23)C1 (centres undefined)
2. COc1ccccc1OCCN1CCCC(c2cc(C(N)=O)[nH]n2)C1 (centres undefined)
3. Cc1cnn(CC(C)NCc2csc(-c3cnn(C)c3)n2)c1 (centres undefined)
4. c1ccc(CNC2CCc3ncnn3C2)nc1 (centres undefined)
5. CC(NC(=O)N(C)CCCOc1ccc(F)cc1)c1nncn1C (centres undefined)

RESULT:
19
8.25
-4.12
-14.6
-3.38

# batch: return Percent Effect for each of the 7 compounds below
1. Cc1ccc(C(=O)NCCS(C)(=O)=O)c(=O)[nH]1
2. O=C(Cc1ccccc1Cl)N1CCCC(n2cncn2)C1 (centres undefined)
3. COC(=O)C1CCN(c2cncc(-n3nc(C)cc3C)n2)CC1
4. Cc1noc(C)c1CN(C)CCC(=O)N1CCc2sccc2C1
5. CCN(Cc1ccc2c(c1)OCCO2)S(=O)(=O)N(C)C(C)C
6. CC(C)C(=O)N1CCCC(c2ncncc2-c2ccncc2)C1 (centres undefined)
7. Cn1ccc2ccc(C(=O)N3CCN(C(=O)N4CCOCC4)CC3)cc21

RESULT:
-5.87
0.737
5.66
7.48
16
-4.06
12.2

Provide each entry's Percent Effect from the list below.
1. COCC(=O)N1CCC2(CCN(Cc3ccccn3)CC2)CC1
2. COCC1c2c(cnn2CC2CC2)CCN1Cc1ccc(OC)cc1 (centres undefined)

RESULT:
1: 6.7; 2: 3.28

###

Hi there, I'd appreciate the recorded Percent Effect for every entry that follows.
Molecular target: AMP-activated protein kinase, AMPK (Homo sapiens) (UniProt P54646+O43741+P54619+Q9UGJ0+Q9Y478+Q13131+Q9UGI9)
Test: AMP-dependent Kinase enzyme assay. An in vitro enzyme assay that detects ADP turnover that is directly proportional to AMPK activity. This uses naive AMPK that is activated during the assay with MK-8722
Type: functional
Set-up: scale not given: direction of the effect not stated beside the values
Conditions: 30 µM
Field note: include the unit after the figure.

Example entries and their recorded answers appear below.
Cc1cnn(CC2CCCN2C(=O)c2cccc(CC#N)c2)c1 (centres undefined) ... 0.139%
CO[C@H]1CCN(Cc2cccc(C)n2)[C@@H]2CN(Cc3cccnc3)C[C@H]12 ... -4.89%
O=C1CCC2(CCCN(c3ncc(F)cn3)CC2)N1CC1CC1 (centres undefined) ... 3.94%
CCn1cc(CNC2CC(=O)N(CCc3cccc(Cl)c3)C2)cn1 (centres undefined) ... 1.5%

I would be grateful if you could provide Percent Effect for each of the following entries.
1. Cc1nc(CN2CCCN(CCOc3cccc(C#N)c3)CC2)no1
2. CC(NC(=O)Nc1cccnc1N1CCCC1)c1nncn1C (centres undefined)
3. CN1CCCC1CNC(=O)CCCOCc1ccccc1 (centres undefined)
4. CC(C)(C)c1ccc(C2(C(=O)NCCCS(C)(=O)=O)CC2)cc1
5. O=C(Cc1ccccc1)N1CCC2(CC(=O)N(c3ccsc3)C2)C1 (centres undefined)
6. CC(=O)c1ccccc1C(=O)NCC1(CO)CC1
7. CCN1CC2(CCN(CCOCCO)CC2)CC(c2ccccc2)C1=O (centres undefined)

RESULT:
["-4.74%", "-24%", "1.84%", "1.11%", "-4.26%", "-5.63%", "-14.6%"]

Could you tell me Percent Effect for each of these compounds? They are listed below.
1. CCC(CNC(=O)c1ccc(=O)[nH]n1)N1CCc2ccccc2C1 (centres undefined)
2. CC(=O)c1ccc(N2CCCC(CO)(CCOc3ccccc3)C2)nc1 (centres undefined)
3. CCc1nc(CN2CCCC(NCc3ccc(C(N)=O)cc3)C2)no1 (centres undefined)
4. CC(C)NC(=O)C1CN(C(N)=O)Cc2ccnn2C1 (centres undefined)
5. CN1CC[C@H](c2ccccc2)[C@@H]2[C@H]1CCCCN2C(=O)c1cnccn1
6. Cc1nn(C)c(C)c1NC(=O)CCn1ncc2c(C)cccc21

RESULT:
-10.4%
4.96%
-1.56%
5.48%
7.03%
1.49%

I would be grateful if you could provide Percent Effect for each of the following entries.
1. Cc1oc(-c2ccsc2)nc1CC(=O)NCCS(C)(=O)=O
2. COc1ccc(CC(=O)N2CCCN(c3ccc(C#N)cc3)CC2)cc1

RESULT:
1: 2.35%; 2: 8.87%

For the 5 compounds below, give their Percent Effect values.
1. CCc1nnc2n1CCN(Cc1ccc(C(=O)N3CCCC3)cc1)C2
2. Cc1cnn(CC2CCCN2CCc2nc3ccccc3c(=O)[nH]2)c1 (centres undefined)
3. CC(C)CCN1CCN(Cc2nc(C3CC3)no2)CC1
4. COc1ccc(NC(=O)Cn2nc(C)ccc2=O)cc1OC
5. COC(=O)c1cc(OCC2CCC2)cc(C(=O)N[C@H]2CC[C@H](O)CC2)c1

RESULT:
1. 2.51%
2. -7.83%
3. 1.67%
4. 2.94%
5. -13.1%
